meta.source: patent US20240383954A1

target: IL-23R (Homo sapiens); test: cell-based; conditions: PBMC pSTAT3 IC50 (nM), PBMCs from healthy donors, IL-23 5 ng/mL, 30 minutes, phosphorylated STAT3
Positions of bridges follow the written chain, without caps; N, C: chain ends. Non-standard residues stand in square brackets, D forms with d. Residues, ends and D or L forms follow the SMILES beside them. *: point of attachment. 2Nal = N[C@@H](Cc1ccc2ccccc2c1)C(=O)O; AEF = NCCOc1ccc(C[C@H](N)C(=O)O)cc1; Pen = CC(C)(S)[C@H](N)C(=O)O; Thp = NC1(C(=O)O)CCOCC1; X4 = C1CC(N*)CCN1
MEASURE_NAME: IC50 (nM)
The answer is to be given in nM; state only the numeric part.

**Query** GET /values?readout=IC50&item= CC(=O)N[C@H](CCCNC(=N)N)C(=O)N[C@@H]1C(=O)N[C@@H](CCC(N)=O)C(=O)N[C@@H]([C@@H](C)O)C(=O)N[C@@H](Cc2c[nH]c3ccccc23)C(=O)N[C@@H](CCC(N)=O)C(=O)N[C@H](C(=O)N[C@@H](Cc2ccc(OCCN)cc2)C(=O)N[C@@H](Cc2ccc3ccccc3c2)C(=O)NC2(C(=O)N[C@@H](CCC(=O)O)C(=O)N[C@@H](CC(N)=O)C(=O)N[C@@H](CC(=O)NC3CCNCC3)C(N)=O)CCOCC2)C(C)(C)SSC1(C)C [Compound 127] (Ac-[dR][Pen]QTWQ[Pen][AEF][2Nal][Thp]END(X4)-NH2; disulfide 2-7)
**Result** 48

Further cases:
**Query** GET /values?readout=IC50&item= CC(=O)N[C@H](CCCNC(=N)N)C(=O)N[C@H]1CCSC[C@@H](C(=O)N[C@@H](Cc2ccc(OCCN)cc2)C(=O)N[C@@H](Cc2ccc3ccccc3c2)C(=O)NC2(C(=O)N[C@@](C)(CCC(=O)O)C(=O)N[C@@H](CC(N)=O)C(=O)N[C@@](C)(Cc3c[nH]c4ccccc34)C(N)=O)CCOCC2)NC(=O)[C@H](CCC(N)=O)NC(=O)[C@H](Cc2c[nH]c3ccccc23)NC(=O)[C@H]([C@@H](C)O)NC(=O)[C@H](CCC(N)=O)NC1=O [Compound 31]
**Result** 16

----------
target: IL-23R (Homo sapiens, UniProt Q5VWK5); experiment: cell-based; conditions: PBMC pSTAT3 IC50 (nM), PBMCs from healthy donors, IL-23 5 ng/mL, 30 minutes, phosphorylated STAT3
Sequence (Q5VWK5 24-629): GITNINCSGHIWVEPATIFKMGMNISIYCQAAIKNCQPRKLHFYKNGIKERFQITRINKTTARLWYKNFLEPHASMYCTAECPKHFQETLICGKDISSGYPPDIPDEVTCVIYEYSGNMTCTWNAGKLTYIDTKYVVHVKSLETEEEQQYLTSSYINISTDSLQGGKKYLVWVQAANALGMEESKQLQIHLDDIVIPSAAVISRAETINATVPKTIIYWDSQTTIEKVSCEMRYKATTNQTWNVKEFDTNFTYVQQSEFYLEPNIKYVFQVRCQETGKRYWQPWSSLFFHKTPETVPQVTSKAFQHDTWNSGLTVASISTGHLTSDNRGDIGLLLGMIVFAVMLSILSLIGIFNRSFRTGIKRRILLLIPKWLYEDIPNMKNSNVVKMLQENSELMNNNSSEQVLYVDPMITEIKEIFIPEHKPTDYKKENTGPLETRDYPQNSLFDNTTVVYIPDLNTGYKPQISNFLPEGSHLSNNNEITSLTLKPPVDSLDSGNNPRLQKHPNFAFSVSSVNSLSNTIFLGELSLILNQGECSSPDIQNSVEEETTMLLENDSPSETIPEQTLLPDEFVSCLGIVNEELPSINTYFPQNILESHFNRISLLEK
Positions of bridges follow the written chain, without caps; N, C: chain ends. Non-standard residues stand in square brackets, D forms with d. Residues, ends and D or L forms follow the SMILES beside them. Trp(7-Me) = Cc1cccc2c(C[C@H](N)C(=O)O)c[nH]c12; 2Nal = N[C@@H](Cc1ccc2ccccc2c1)C(=O)O; AEF = NCCOc1ccc(C[C@H](N)C(=O)O)cc1; Pen = CC(C)(S)[C@H](N)C(=O)O; Thp = NC1(C(=O)O)CCOCC1
MEASURE_NAME: IC50 (nM)
The answer is to be given in nM; state only the numeric part.

Worked cases, IC50 given:
**Query** GET /values?readout=IC50&item= CC(=O)NCCCC[C@H](NC(=O)[C@](C)(CCCCN)NC(=O)[C@H](Cc1ccc2ccccc2c1)NC(=O)[C@H](Cc1ccc(OCCN)cc1)NC(=O)[C@]1(C)CSSC[C@H](NC(C)=O)C(=O)N[C@@H](CC(N)=O)C(=O)N[C@@H]([C@@H](C)O)C(=O)N[C@@H](Cc2c[nH]c3c(C)cccc23)C(=O)N[C@@H](CCC(N)=O)C(=O)N1)C(=O)N[C@@H](CC(N)=O)C(=O)N[C@@](C)(Cc1ccccc1)C(N)=O [Compound 119]
**Result** 5.3

**Query** GET /values?readout=IC50&item= CC(=O)NCCCC[C@@H]1NC(=O)[C@H](Cc2c[nH]c3c(C)cccc23)NC(=O)[C@H]([C@@H](C)O)NC(=O)[C@H](CC(N)=O)NC(=O)[C@@H](NC(C)=O)C(C)(C)SSC(C)(C)[C@@H](C(=O)N[C@@H](Cc2ccc(OCCN)cc2)C(=O)N[C@@H](Cc2ccc3ccccc3c2)C(=O)N[C@@](C)(CCCCN)C(=O)N[C@@H](CCCCNC(C)=O)C(=O)N[C@@H](CC(N)=O)C(=O)N[C@@](C)(Cc2ccccc2)C(N)=O)NC1=O [Compound 76]
**Result** 11

Further cases:
**Query** GET /values?readout=IC50&item= CC(=O)N[C@H](CCCNC(=N)N)C(=O)N[C@@H]1C(=O)N[C@@H](CC(N)=O)C(=O)N[C@@H]([C@@H](C)O)C(=O)N[C@@H](Cc2c[nH]c3c(C)cccc23)C(=O)N[C@@H](CCC(N)=O)C(=O)N[C@H](C(=O)N[C@@H](Cc2ccc(OCCN)cc2)C(=O)N[C@@H](Cc2ccc3ccccc3c2)C(=O)NC2(C(=O)N[C@@H](CCC(=O)O)C(=O)N[C@@H](CC(N)=O)C(=O)NC3(C(N)=O)CCOCC3)CCOCC2)C(C)(C)SSC1(C)C [Compound 90] (Ac-[dR][Pen]NT[Trp(7-Me)]Q[Pen][AEF][2Nal][Thp]EN[Thp]-NH2; disulfide 2-7)
**Result** 3.7

**Query** GET /values?readout=IC50&item= CC(=O)NCCCC[C@H](NC(=O)[C@](C)(CCCCN)NC(=O)[C@H](Cc1ccc2ccccc2c1)NC(=O)[C@H](Cc1ccc(OCCN)cc1)NC(=O)[C@H]1NC(=O)[C@H](CCC(N)=O)NC(=O)[C@H](Cc2c[nH]c3c(C)cccc23)NC(=O)[C@H]([C@@H](C)O)NC(=O)[C@H](CC(N)=O)NC(=O)[C@@H](NC(C)=O)C(C)(C)SSC1(C)C)C(=O)N[C@@H](CC(N)=O)C(=O)N[C@@](C)(Cc1ccccc1)C(N)=O [Compound 89]
**Result** 12

----------
molecular target: IL-23R (Homo sapiens, UniProt Q5VWK5); experiment: cell-based; details: PBMC pSTAT3 IC50 (nM), PBMCs from healthy donors, IL-23 5 ng/mL, 30 minutes, phosphorylated STAT3;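 further: cryopreserved PBMCs stimulated at 37 °C in 5% CO2, then lysed, with phosphorylated STAT3 quantified in lysates using a phospho-STAT panel kit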
Positions of bridges follow the written chain, without caps; N, C: chain ends. Non-standard residues stand in square brackets, D forms with d. Residues, ends and D or L forms follow the SMILES beside them. 2Nal = N[C@@H](Cc1ccc2ccccc2c1)C(=O)O; AEF = NCCOc1ccc(C[C@H](N)C(=O)O)cc1; Pen = CC(C)(S)[C@H](N)C(=O)O; Thp = NC1(C(=O)O)CCOCC1
MEASURE_NAME: IC50 (nM)
The answer is to be given in nM; state only the numeric part.

Worked cases, IC50 given:
**Query** GET /values?readout=IC50&item= CC(=O)NCCCC[C@@H]1NC(=O)[C@H](Cc2c[nH]c3c(C)cccc23)NC(=O)[C@H]([C@@H](C)O)NC(=O)[C@H](CC(N)=O)NC(=O)[C@@H](NC(C)=O)C(C)(C)SSC(C)(C)[C@@H](C(=O)N[C@@H](Cc2ccc(OCCN)cc2)C(=O)N[C@@H](Cc2ccc3ccccc3c2)C(=O)N[C@@](C)(CCCCN)C(=O)N[C@@H](CCCCNC(C)=O)C(=O)N[C@@H](CC(N)=O)C(=O)N[C@@](C)(Cc2ccccc2)C(=O)N[C@H](Cc2ccc(O)cc2)C(N)=O)NC1=O [Compound 100]
**Result** 21

**Query** GET /values?readout=IC50&item= CC(=O)NCCCC[C@@H]1NC(=O)[C@H](Cc2c[nH]c3ccccc23)NC(=O)[C@H]([C@@H](C)O)NC(=O)[C@H](CC(N)=O)NC(=O)[C@@H](NC(C)=O)CSSC[C@@](C)(C(=O)N[C@@H](Cc2ccc(OCCN)cc2)C(=O)N[C@@H](Cc2ccc3ccccc3c2)C(=O)N[C@@](C)(CCCCN)C(=O)N[C@@H](CCCCNC(C)=O)C(=O)N[C@@H](CC(N)=O)C(=O)NC2(C(N)=O)CCOCC2)NC1=O [Compound 121]
**Result** 41

**Query** GET /values?readout=IC50&item= CC(=O)N[C@H](CCCNC(=N)N)C(=O)N[C@H]1CCSC[C@@H](C(=O)N[C@@H](Cc2ccc(OCCN)cc2)C(=O)N[C@@H](Cc2ccc3ccccc3c2)C(=O)NC2(C(=O)N[C@@](C)(CCC(=O)O)C(=O)N[C@@H](CC(N)=O)C(=O)NC3(C(N)=O)CCOCC3)CCOCC2)NC(=O)[C@H](CCC(N)=O)NC(=O)[C@H](Cc2c[nH]c3ccccc23)NC(=O)[C@H]([C@@H](C)O)NC(=O)[C@H](CCC(N)=O)NC1=O [Compound 37]
**Result** 11

Further cases:
**Query** GET /values?readout=IC50&item= CC(=O)NCCCC[C@@H]1NC(=O)[C@H](Cc2c[nH]c3c(C)cccc23)NC(=O)[C@H]([C@@H](C)O)NC(=O)[C@H](CC(N)=O)NC(=O)[C@@H](NC(C)=O)C(C)(C)SSC(C)(C)[C@@H](C(=O)N[C@@H](Cc2ccc(OCCN)cc2)C(=O)N[C@@H](Cc2ccc3ccccc3c2)C(=O)N[C@@](C)(CCCCN)C(=O)N[C@@H](CCCCNC(C)=O)C(=O)N[C@@H](CC(N)=O)C(=O)N[C@@](C)(Cc2ccccc2)C(=O)N[C@@H](Cc2cccnc2)C(N)=O)NC1=O [Compound 116]
**Result** 20

**Query** GET /values?readout=IC50&item= CC(=O)NCCCC[C@H](NC(=O)C1(NC(=O)[C@H](Cc2ccc3ccccc3c2)NC(=O)[C@H](Cc2ccc(OCCN)cc2)NC(=O)[C@H]2NC(=O)[C@H](CCC(N)=O)NC(=O)[C@H](Cc3c[nH]c4ccccc34)NC(=O)[C@H]([C@@H](C)O)NC(=O)[C@H](CCC(N)=O)NC(=O)[C@@H](NC(=O)[C@@H](CCCNC(=N)N)NC(C)=O)C(C)(C)SSC2(C)C)CCOCC1)C(=O)N[C@@H](CC(N)=O)C(=O)N[C@@H](Cc1ccccc1)C(N)=O [Compound 53] (Ac-[dR][Pen]QTWQ[Pen][AEF][2Nal][Thp]K(Ac)NF-NH2; disulfide 2-7)
**Result** 29

**Query** GET /values?readout=IC50&item= CC(=O)N[C@H](CCCNC(=N)N)C(=O)N[C@H]1CCSC[C@@H](C(=O)N[C@@H](Cc2ccc(OCCN)cc2)C(=O)N[C@@H](Cc2ccc3ccccc3c2)C(=O)NC2(C(=O)N[C@@H](CCC(N)=O)C(=O)N[C@@H](CC(N)=O)C(=O)N[C@@](C)(Cc3ccccc3)C(N)=O)CCOCC2)NC(=O)[C@H](CCC(N)=O)NC(=O)[C@H](Cc2c[nH]c3ccccc23)NC(=O)[C@H]([C@@H](C)O)NC(=O)[C@H](CCC(N)=O)NC1=O [Compound 30]
**Result** 25
